# system_name: Human 5-HT2A (Homo sapiens)
# Sequence (P28223 whole entry): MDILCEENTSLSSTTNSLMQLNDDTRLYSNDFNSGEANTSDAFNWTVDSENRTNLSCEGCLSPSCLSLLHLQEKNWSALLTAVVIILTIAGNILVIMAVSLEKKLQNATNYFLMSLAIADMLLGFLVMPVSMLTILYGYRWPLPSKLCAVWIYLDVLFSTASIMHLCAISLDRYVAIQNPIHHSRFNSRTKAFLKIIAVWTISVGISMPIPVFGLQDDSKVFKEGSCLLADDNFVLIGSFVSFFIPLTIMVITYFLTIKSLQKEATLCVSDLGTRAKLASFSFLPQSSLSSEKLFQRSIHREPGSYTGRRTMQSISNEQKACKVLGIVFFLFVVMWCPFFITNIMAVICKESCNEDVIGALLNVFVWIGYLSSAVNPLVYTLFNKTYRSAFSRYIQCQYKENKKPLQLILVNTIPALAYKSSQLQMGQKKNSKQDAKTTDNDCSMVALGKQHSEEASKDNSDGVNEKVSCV
reported_property: Ki

INSERT INTO measurements (smiles_string, system_name, assay_value) VALUES
  ('COC(=O)N1CCC(CN2CCC(CNC(=O)c3cccc4[nH]c(C(C)C)nc34)CC2)CC1', 'Human 5-HT2A (Homo sapiens)', '> 1000 nM');

###

# system_name: Human V1a (Homo sapiens, UniProt P37288)
# Sequence (P37288 whole entry): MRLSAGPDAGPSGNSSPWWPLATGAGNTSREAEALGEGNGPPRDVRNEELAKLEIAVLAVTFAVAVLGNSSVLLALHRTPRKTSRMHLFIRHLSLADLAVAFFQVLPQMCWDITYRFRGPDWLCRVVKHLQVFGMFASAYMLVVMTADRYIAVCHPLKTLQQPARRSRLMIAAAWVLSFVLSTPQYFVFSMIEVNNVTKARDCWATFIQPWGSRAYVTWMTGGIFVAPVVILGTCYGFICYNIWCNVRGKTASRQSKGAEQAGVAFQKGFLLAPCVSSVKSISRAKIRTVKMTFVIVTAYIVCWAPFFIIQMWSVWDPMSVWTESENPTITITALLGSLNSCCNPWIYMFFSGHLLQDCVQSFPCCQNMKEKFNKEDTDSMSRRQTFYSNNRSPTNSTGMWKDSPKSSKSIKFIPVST
pKi: −log10 of the molar value.
reported_property: pKi

INSERT INTO results (smiles_string, reported_property, assay_value) VALUES
  ('COC(=O)N1CCC(CN2CCC(CNC(=O)c3cccc4[nH]c(C(C)C)nc34)CC2)CC1', 'pKi', '< 6.00');
